Dear all, this message contains IC50 results, target or system His tagged full-length PTPN1 protein (Homo sapiens, UniProt P18031).

Input line: # IC50 lookup, item Cn1nccc1CNC(=O)N1CCc2cc(O)c(N3CC(=O)NS3(=O)=O)c(F)c2C1
Output line: 10 to 100 nM

Input line: Moving on to NC[C@H]1CCc2cc(O)c(N3CC(=O)NS3(=O)=O)c(F)c2C1
Output line: 10 to 100 nM

Input line: Lookup O=C1CN(c2c(O)cc3c(c2F)CN(CCCC2CC2)CC3)S(=O)(=O)N1
Output line: 10 to 100 nM

Input line: Subsequent entry: Cc1n[nH]c(C)c1CCN1Cc2c(cc(O)c(N3CC(=O)NS3(=O)=O)c2F)C(F)(F)C1
Output line: > 100 nM
